Source: patent US5064946A

- Test system: Entero. aerogenes
- experiment.description: In vitro antibacterial activity (MIC), Entero. aerogenes
- Type: cell-based, Enterobacter aerogenes
- condition.label: Klebsiella aerogenes; Wellcotest sensitivity Test Agar + 7% lysed horse blood
measurement.kind: MIC

Example results:
# structure, MIC
records = [
    ("CC(=O)OC[C@H]1O[C@@H](n2cc(C)c(=O)n(C(=O)c3ccccc3)c2=O)C[C@@H]1N=[N+]=[N-]", "> 100 µg/mL"),
    ("Cc1cn([C@H]2C[C@H](N=[N+]=[N-])[C@@H](CO)O2)c(=O)[nH]c1=S", "< 0.1 µg/mL"),
]

Query block: Requested field: MIC. Item: [N-]=[N+]=N[C@H]1C[C@H](n2cc(Br)c(=O)[nH]c2=O)O[C@@H]1CO
Result block: > 100 µg/mL

Query block: Given the entry Cc1cn([C@H]2C[C@H](N=[N+]=[N-])[C@@H](CO)O2)c(=S)[nH]c1=O , report its measured MIC.
Result block: > 100 µg/mL
